The measurements presented in this section are drawn from BindingDB's records for doi:10.1021/acs.jnatprod.6b00597.

Assay: Inhibition of human ABCB1 expressed in NCI-ADR-RES cells assessed as potentiation of colchicine-induced cytotoxicity by measuring colchicine IC50 at 200 nM after 72 hrs by MTT assay (Rvb = 1607.50 +/- 497.42 nM)
readoutType: IC50 (nM)
# unit: nM | format: bare number

Entry COc1ccc2cc1Oc1ccc(cc1)C[C@H]1c3cc(c(OC)cc3CCN1C)Oc1c(OC)c(OC)c(OC)c3c1[C@H](C2)N(C)CC3 [CHEBI:5677] : reported IC50 = ? 224

====

Assay: Inhibition of human ABCB1 expressed in KBV1 cells assessed as potentiation of doxorubicin-induced cytotoxicity by measuring doxorubicin IC50 at 100 nM after 72 hrs by MTT assay (Rvb = 5.07 +/- 0.19 uM)
readoutType: IC50 (nM)
Note: unit nM is implicit; provide only the numeric part.

# query: IC50 of entry COc1ccc2cc1Oc1ccc(cc1)C[C@H]1c3cc(c(OC)cc3CCN1C)Oc1c(OC)c(OC)c(OC)c3c1[C@H](C2)N(C)CC3 [CHEBI:5677] 700

====

Assay: Inhibition of human ABCB1 expressed in KBV1 cells assessed as potentiation of vincristine-induced cytotoxicity by measuring vincristine IC50 at 100 nM after 72 hrs by MTT assay (Rvb = 277.68 +/- 56.61 nM)
readoutType: IC50 (nM)
Just the number in nM, nothing appended.

Which IC50 value belongs to COc1ccc2cc1Oc1ccc(cc1)C[C@H]1c3cc(c(OC)cc3CCN1C)Oc1c(OC)c(OC)c(OC)c3c1[C@H](C2)N(C)CC3 ? 100

====

Assay: Inhibition of human ABCB1 expressed in KBV1 cells assessed as potentiation of doxorubicin-induced cytotoxicity by measuring doxorubicin IC50 at 500 nM after 72 hrs by MTT assay (Rvb = 5.07 +/- 0.19 uM)
readoutType: IC50
Record the result as a number with its unit.

// query IC50 value for entry COc1ccc2cc1Oc1ccc(cc1)C[C@H]1c3cc(c(OC)cc3CCN1C)Oc1c(OC)c(OC)c(OC)c3c1[C@H](C2)N(C)CC3 [CHEBI:5677] 100 nM

====

Assay: Inhibition of human ABCB1 expressed in NCI-ADR-RES cells assessed as potentiation of vincristine-induced cytotoxicity by measuring vincristine IC50 at 500 nM after 72 hrs by MTT assay (Rvb = 3714.80 +/- 383.58 nM)
readoutType: IC50
Number plus unit, in that order.

Suppose we examine the compound COc1ccc2cc1Oc1ccc(cc1)C[C@H]1c3cc(c(OC)cc3CCN1C)Oc1c(OC)c(OC)c(OC)c3c1[C@H](C2)N(C)CC3 [CHEBI:5677] ; what IC50 value has been reported? 115 nM

====

Assay: Inhibition of human ABCB1 expressed in KBV1 cells assessed as potentiation of doxorubicin-induced cytotoxicity by measuring doxorubicin IC50 at 50 nM after 72 hrs by MTT assay (Rvb = 5.07 +/- 0.19 uM)
readoutType: IC50
Phrase the answer as number then unit, nothing more needed.

// IC50 lookup, key: COc1ccc2cc1Oc1ccc(cc1)C[C@H]1c3cc(c(OC)cc3CCN1C)Oc1c(OC)c(OC)c(OC)c3c1[C@H](C2)N(C)CC3 [CHEBI:5677] 1420 nM

====

Assay: Inhibition of human ABCB1 expressed in KBV1 cells assessed as potentiation of colchicine-induced cytotoxicity by measuring colchicine IC50 at 200 nM after 72 hrs by MTT assay (Rvb = 487.57 +/- 30.54 nM)
readoutType: pIC50
Remember the convention: pIC50 equals -log10 of concentration in molar.

What pIC50 value was documented for this molecule, COc1ccc2cc1Oc1ccc(cc1)C[C@H]1c3cc(c(OC)cc3CCN1C)Oc1c(OC)c(OC)c(OC)c3c1[C@H](C2)N(C)CC3 ? 6.93

====

Test: Inhibition of human ABCB1 expressed in NCI-ADR-RES cells assessed as potentiation of colchicine-induced cytotoxicity by measuring colchicine IC50 at 1000 nM after 72 hrs by MTT assay (Rvb = 1607.50 +/- 497.42 nM)
readoutType: pIC50
Scale: negative log10 of molar concentration, which is what pIC50 denotes.

Which pIC50 is reported for this compound? COc1cc2c(cc1OC)CN(CCc1ccc(NC(=O)c3cc(OC)c(OC)cc3NC(=O)c3cnc4ccccc4c3)cc1)CC2 7.60

====

Experiment: Inhibition of human ABCB1 expressed in KBV1 cells assessed as potentiation of colchicine-induced cytotoxicity by measuring colchicine IC50 at 100 nM after 72 hrs by MTT assay (Rvb = 487.57 +/- 30.54 nM)
readoutType: pIC50
Scale: negative log10 of molar concentration, which is what pIC50 denotes.

Which pIC50 value is on record for COc1ccc2cc1Oc1ccc(cc1)C[C@H]1c3cc(c(OC)cc3CCN1C)Oc1c(OC)c(OC)c(OC)c3c1[C@H](C2)N(C)CC3 [CHEBI:5677] ? 6.73

====

Assay: Inhibition of human ABCB1 expressed in NCI-ADR-RES cells assessed as potentiation of doxorubicin-induced cytotoxicity by measuring doxorubicin IC50 at 100 nM after 72 hrs by MTT assay (Rvb = 5.54 +/- 0.60 uM)
readoutType: IC50 (nM)
Respond numerically; units are nM and should not be typed.

For the molecule shown here, COc1ccc2cc1Oc1ccc(cc1)C[C@H]1c3cc(c(OC)cc3CCN1C)Oc1c(OC)c(OC)c(OC)c3c1[C@H](C2)N(C)CC3 , give the reported IC50. 1310
